- Test system: A498 renal
- MEASUREMENT NOTES: NCI tumour cell line growth inhibition, 48 h
EXPERIMENTAL ENDPOINT: TGI

Worked examples, 3 molecules total:
MOLECULE	TGI
CN(C)C(=O)C(F)(F)C(c1ccccc1)C1C(=O)N(C)C(=O)N(C)C1=O (stereo unspecified)	> 100 µM
O=c1cc(NNc2cccc3ccccc23)[nH]c(=O)[nH]1	35.7 µM
CN1CCCCC1CCN1c2ccccc2Sc2ccc(Br)cc21 (stereo unspecified)	7.08 µM

Input "N#C/C(=C\c1ccc(O)cc1)C(N)=O" . Output TGI: > 100 µM

Input Nc1nc(Cl)c2ncn(CCCC(c3ccccc3)P(=O)(O)O)c2n1 (stereo unspecified) . Output TGI: > 100 µM

Input "Cc1c2cc[n+](Cc3ccc(I)cc3)cc2c(C)c2c1[nH]c1ccccc12" . Output TGI: > 25 µM

Input "Cc1ccc(NCCNCC(C)(C)O)c2c(=O)c3ccc(Cl)cc3sc12" . Output TGI: 3.09 µM

Input CN(C)C(=O)C(F)(F)C(c1ccccc1Br)C1C(=O)N(C)C(=O)N(C)C1=O (stereo unspecified) . Output TGI: > 100 µM

Input "COc1ccc(OC)c2c(C(C)=O)cccc12" . Output TGI: > 100 µM

Input "COc1cc(/C=C(\C)[N+](=O)[O-])cc(OC)c1" . Output TGI: 25 µM

Input "O=C(N/C(=C\c1ccc([N+](=O)[O-])cc1)c1nc2ccccc2s1)c1ccccc1" . Output TGI: > 100 µM

---

- System: T-47D breast
- MEASUREMENT NOTES: NCI tumour cell line growth inhibition, 48 h
Form field: GI50 (one value per entry).

Worked examples, 3 molecules total:
MOLECULE	GI50
CC[C@H](C)[C@H](NC(=O)C12C3C4C1C1C2C3C41NC)C(=O)N(C)[C@H](C[C@@H](OC(C)=O)c1nc(C(=O)N[C@@H](Cc2ccccc2)C[C@H](C)C(=O)OC)cs1)C(C)C (stereo partly drawn)	> 14.3 µM
O=C(Nc1cccc(-n2ccc3c(NC(=O)c4ccccc4)ncnc32)c1)Nc1ccc(Cl)c(C(F)(F)F)c1	2.61 µM
CC1(C)N=C(N)N=C(N)N1c1ccc(CCCC(=O)Nc2ccc(S(=O)(=O)F)cc2)cc1	15.8 µM

Item CN1CCCCC1CCN1c2ccccc2Sc2ccc(Br)cc21 (stereo not drawn) ; assay system T-47D breast; GI50 reported as 3.61 µM

Item C=CCC(N[C@@H](CO)c1ccccc1)c1ccc2ccccc2n1 (stereo partly drawn) ; assay system T-47D breast; GI50 reported as 61.1 µM

Item "COc1cc2ncn(-c3cc(OCc4ccccc4C(F)(F)F)c(C(N)=O)s3)c2cc1OC" ; assay system T-47D breast; GI50 reported as 4.42 µM

Item "Nc1nc(SCc2ccccc2CCl)c2[nH]cnc2n1" ; assay system T-47D breast; GI50 reported as 15.6 µM

Item COc1ccc(-c2nsc3c2NC(=O)CC3c2ccsc2)cc1 (stereo not drawn) ; assay system T-47D breast; GI50 reported as 0.454 µM

Item "N[C@@H]1CCCN(c2c(Br)cnc3[nH]cc(NC(=O)C4CC4)c23)C1" ; assay system T-47D breast; GI50 reported as 38.2 µM

Item Nc1ncn([C@H]2CC(O)[C@@H](CO)S2)c(=O)n1 (stereo partly drawn) ; assay system T-47D breast; GI50 reported as > 100 µM

Item "Clc1ccc(C=Nc2ccc(-c3nc4ccccc4[nH]3)cc2)cc1" ; assay system T-47D breast; GI50 reported as 55.1 µM

Item "S=c1ssnc1-c1cc2ccccc2o1" ; assay system T-47D breast; GI50 reported as 21.9 µM

Item "Cc1cc(N2CCC(N3CCCC3)CC2)nc(/N=C(\N)Nc2ccc(Cl)c(Cl)c2)n1" ; assay system T-47D breast; GI50 reported as 1.92 µM

---

- System: ACHN renal
- MEASUREMENT NOTES: NCI tumour cell line growth inhibition, 48 h; in the data active means GI50 below about 0.43 µM; inactive means the rest
Classes to choose from: active, inactive

Example entries and their recorded answers appear below.
MOLECULE	QUALITATIVE LABEL
CN1C2C=CC(=O)C1C1C(=O)N(c3ccccc3)C(=O)C12 (stereo not drawn)	inactive
S=c1ssnc1-c1cc2ccccc2o1	inactive
CCCC(=O)Nc1cc(C(=O)N2C[C@H]3C[C@@]34C2=CC(=O)c2[nH]cc(C)c24)n(COC)c1	active
COc1cc(C2CC(c3ccccc3)=NN2C=O)ccc1Oc1ccnc2cc(Cl)ccc12 (stereo not drawn)	inactive
[Br][Pb]([c]1ccccc1)([c]1ccccc1)[c]1ccccc1	active
CC(C)=C[C@@H]1C[C@H](C)[C@H]2CC[C@H](C)c3c(O)c(OC4OC(C)C(O)C(O)C4O)c(C)c1c32 (stereo partly drawn)	inactive
Nc1nc(SCc2ccccc2CCl)c2[nH]cnc2n1	inactive
CN(C)CCCN1c2ccccc2Sc2ccc(C(F)(F)F)cc21	inactive

Could you kindly confirm the outcome this assay logged for "NC(=NCCCCCCN=C(N)/N=C(\N)Nc1ccc(Cl)cc1)/N=C(\N)Nc1ccc(Cl)cc1" ? inactive

Could you kindly confirm the outcome this assay logged for "Clc1ccc2c(NCCNc3nc(N4CCOCC4)nc4ccccc34)ccnc2c1" ? inactive

Could you kindly confirm the outcome this assay logged for "CCc1ccc2c(c1)C(=O)c1c-2n(CCCN)c(=O)c2cc(OC)c(OC)cc12" ? inactive

Could you kindly confirm the outcome this assay logged for "O=C(Nc1cccc(-n2ccc3c(NC(=O)c4ccccc4)ncnc32)c1)Nc1ccc(Cl)c(C(F)(F)F)c1" ? inactive

Could you kindly confirm the outcome this assay logged for "Cn1cc(-c2cc(-c3cn(C)c4ccccc34)[nH]n2)c2ccccc21" ? inactive

Could you kindly confirm the outcome this assay logged for "CNC(=O)CCN1CCN(CC/C=C2\c3ccccc3Sc3ccc(Cl)cc32)CC1" ? inactive

Could you kindly confirm the outcome this assay logged for CCCCCCCCCCCC1N=C(N)N=C(N)N1c1cccc(Br)c1 (stereo not drawn) ? inactive

---

- Test system: 786-0 renal
- MEASUREMENT NOTES: NCI tumour cell line growth inhibition, 48 h
Form field: TGI (one value per entry).

COMPOUND	TARGET OR TEST SYSTEM	MEASUREMENT
CC(C)(Oc1ccc(-c2cccc3ccccc23)cc1)C(=O)O	786-0 renal	> 100 µM
OC12CCC3(OC4CCCCO4)c4ccccc4C3C1c1ccccc12 (stereo not given)	786-0 renal	> 100 µM

Input "COC(=O)c1c(C(=O)OC)c(-c2ccccc2)n(-c2ccccc2)c(=O)c1-c1ccccc1" . Output TGI: > 100 µM

Input "CCN(CC)c1ccc(/C=N/NC(=O)Cc2ccc(Nc3ccnc(C(F)(F)F)c3)cc2)c(O)c1" . Output TGI: > 100 µM

Input "Cc1ccc(-c2nc(NCCOCCOCCN)nc(N3CCN(c4ccccn4)CC3)n2)cc1" . Output TGI: 26.8 µM

---

Form field: TGI (one value per entry).
- Test system: OVCAR-3 ovarian
- MEASUREMENT NOTES: NCI tumour cell line growth inhibition, 48 h

Worked examples, 3 molecules total:
MOLECULE	TGI
C=CCC(N[C@@H](CO)c1ccccc1)c1ccc2ccccc2n1 (stereo partly drawn)	> 100 µM
CSc1cc(Cl)c(C)cc1S(=O)(=O)NC(=O)NNc1ccc(C)cc1	> 100 µM
Cc1cc(N2CCC(N3CCCC3)CC2)nc(/N=C(\N)Nc2ccc(Cl)c(Cl)c2)n1	3.26 µM

Input CC(C)(O)C1COC2=C1C(=O)c1ccccc1C2=O (stereo not drawn) . Output TGI: 57.8 µM

Input "O=C(O)CNc1ccc2c(c1)Cc1cc(Br)ccc1-2" . Output TGI: > 100 µM

Input "COc1cc(C(=O)c2cnc(-c3c[nH]c4cccc(C)c34)[nH]2)cc(OC)c1OC" . Output TGI: 0.0125 µM

Input C[N+](C)(C)CC1CCC(C[N+](C)(C)C)C1=NO (stereo not drawn) . Output TGI: > 100 µM

Input COC(=O)c1ccccc1CC1Cc2c(C)ccc(C)c2C1=O (stereo not drawn) . Output TGI: > 100 µM

Input CN1CCCCC1CCN1c2ccccc2Sc2ccc(Br)cc21 (stereo not drawn) . Output TGI: 11.7 µM

Input "Cc1nc2c(C)ccc([N+](=O)[O-])c2c(NCCCN(C)C)c1C" . Output TGI: > 100 µM

Input "CCCOC(=O)c1cc(O)c(O)c(O)c1" . Output TGI: 79.8 µM

Input "CC(=O)O[C@H]1[C@@H](N2CCOCC2)C[C@H]2[C@@H]3CC=C4C[C@@H](N5CCCC5)CC[C@]4(C)[C@H]3CC[C@@]21C" . Output TGI: > 100 µM

---

- Test system: LOX IMVI melanoma
- MEASUREMENT NOTES: NCI tumour cell line growth inhibition, 48 h
Form field: TGI (one value per entry).

MOLECULE	TGI
CCCOC(=O)c1cc(O)c(O)c(O)c1	30.8 µM
COC(=O)c1c(C)nc(C)c2c1C(=O)C(Br)=C(NCc1ccccc1)C2=O	10.8 µM
C/C(=C\C(=O)Nc1ccc2n[nH]nc2c1)Nc1ccc2n[nH]nc2c1	> 100 µM

Item COC(=O)c1ccccc1CC1Cc2c(C)ccc(C)c2C1=O (stereo unspecified) ; assay system LOX IMVI melanoma; TGI reported as 37.4 µM

Item "c1ccc(C(Oc2noc3ccccc23)c2ccccc2)cc1" ; assay system LOX IMVI melanoma; TGI reported as > 100 µM

Item "CC(=O)c1cc2c(N)c(C(=O)Nc3cccc4ccccc34)sc2nc1C" ; assay system LOX IMVI melanoma; TGI reported as > 50 µM

Item "CCSC[C@@H]1C[C@](O)(c2ccccc2)[C@@H](c2ccccc2)O1" ; assay system LOX IMVI melanoma; TGI reported as > 100 µM

Item "CC1(C)N=C(C(N)=O)c2[nH]cnc2N1" ; assay system LOX IMVI melanoma; TGI reported as > 100 µM
